- Tested on: TIE2;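 further: KINOMEscan kinase panel screen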
- Construct: gene TEK
- condition.label: concentration: 1 μM, replicates: in singlicate; n = 1
outcome.measure: %Inh (%)
Report the figure in % without appending any unit label.

// below: answered compounds
• O=C(Nc1ccccc1F)NC1CCN(c2ccnc(Nc3ccc(F)cc3)n2)CC1 [GSK1379800] = 7
• COc1cccc(C(=O)Nc2cccc(Oc3ccc4nc(NC(=O)C5CC5)cn4n3)c2)c1 = 67
• Cc1ccc(C(=O)Nc2ccc(Nc3ccnc4cc(-c5nccs5)ccc34)cc2O)cc1.Cl [GW494702] = 5

As a next step, examine the compound that follows.
Per the record, Cc1occc1-c1ncc(OC[C@@H](N)Cc2c[nH]c3ccccc23)cc1-c1ccc2[nH]nc(C)c2c1.O=C(O)C(F)(F)F [GSK682037] has %Inh of 0
